Recorded inhibition, one value per entry.
# Test system: Hepatitis C virus
# assay text: Anti-viral activity test (HCVcc, Type 2a), JFH 5a-Rluc luciferase in Huh7.5.1 cell line
# Format: cell-based
# condition details: Huh-7.5.1, luciferase activity, negative control = 100%, Huh7.5.1 cells infected with JFH 5a-Rluc, read-out: HCV inhibition rate %
# Procedure: The inhibitory effect of the oxazolidinone compounds on HCV replicon and NS5A were HCV was tested by the method disclosed in KR-A 10-2010-0007937 or US-A 2010/0215696. […] The luciferase activity of negative control which was not treated with the oxazolidinone compound is set to 100%. At various amounts of the oxazolidinone compounds, the luciferase activities were calculated based on the negative control to obtain the inhibition rate of HCV (%). […]
The figure you give is taken to be in %; do not add the unit.

COC(=O)N[C@H](C(=O)N1CCC[C@H]1c1ncc(-c2ccc(-c3ccc(N4C[C@H](Cn5cc(-c6ccccc6)nn5)OC4=O)cc3F)cc2)[nH]1)C(C)C | 96.7
COC(=O)N[C@H](C(=O)N1CCC[C@H]1c1ncc(-c2ccc(-c3ccc(N4C[C@H](Cn5ccnn5)OC4=O)cc3F)cc2)[nH]1)C(C)C | 99.8
COC(=O)N[C@H](C(=O)N1CCC[C@H]1c1ncc(-c2ccc(-c3ccc(N4C[C@H](Cn5cc(CCO)nn5)OC4=O)cc3F)cc2)[nH]1)C(C)C | 84.4
CC(=O)NC[C@H]1CN(c2ccc(-c3ccc(-c4cnc([C@@H]5CCCN5C(=O)OC(C)(C)C)[nH]4)cc3)c(F)c2)C(=O)O1 | 46.2
COC(=O)N[C@H](C(=O)N1CCC[C@H]1c1ncc(-c2ccc(-c3ccc(N4C[C@H](Cn5cc(COCc6ccccc6)nn5)OC4=O)cc3F)cc2)[nH]1)C(C)C | 97.3

Query: Would you mind telling me what inhibition value was observed for CC(=O)NC[C@H]1CN(c2ccc(-c3ccc(-c4cnc([C@@H]5CCCN5C(C)=O)[nH]4)cc3)c(F)c2)C(=O)O1 ?
Response: 28

src = patent US9422274B2
